Neu values for the compounds below.
- Species: Rattus norvegicus
- run description: Open TG-GATES - Regimen: Single
- Format: toxicity, organism-based, Sprague-Dawley
- Set-up: regimen Single, gender Male, age 6 weeks
- condition notes: in vivo, po, 0 mg/kg, 3 h, tissue Blood, route gavage, dose level Control
result type: Neu (%)

>>> value_reported("Cc1ccc2cc3c(ccc4ccccc43)c3c2c1CC3")
16.2
>>> value_reported("C=C(C)[C@H]1Cc2c(ccc3c2O[C@@H]2COc4cc(OC)c(OC)cc4[C@@H]2C3=O)O1")
17.6
>>> value_reported("O=[N+]([O-])c1ccc(O)c([N+](=O)[O-])c1")
16.8
>>> value_reported("C[C@H]1C(=O)O[C@@H]2CCN3CC=C(COC(=O)[C@](C)(O)[C@]1(C)O)[C@H]23")
19
>>> value_reported("C[C@H]1O[C@H](O[C@H]2[C@H](O)[C@@H](O)[C@@H](O[C@H]3[C@H](O)[C@@H](O)C(O)O[C@@H]3CO)O[C@@H]2CO)[C@H](O)[C@@H](O)[C@@H]1N[C@H]1C=C(CO)[C@@H](O)[C@H](O)[C@H]1O (some centres undefined)")
16.8
>>> value_reported("Cn1cc[nH]c1=S")
14.6
>>> value_reported("OCCN1CCN(CCCN2c3ccccc3Sc3ccc(C(F)(F)F)cc32)CC1")
12.2
>>> value_reported("CCOC(=O)C(C)(C)Oc1ccc(Cl)cc1 [CLOFIBRATE]")
14.4
>>> value_reported("Cc1cccc(C)c1OCC(C)N (centres undefined)")
16.2

---

- Organism: Rattus norvegicus
- run description: Open TG-GATES - Regimen: Daily Repeat
- Assay type: toxicity, organism-based, Sprague-Dawley
- Set-up: regimen Daily Repeat, gender Male, age 6 weeks
- condition notes: in vivo, po, 0 mg/kg, […], tissue Plasma, route gavage, dose level Control, time 14 day
result type: ALP (IU/L)

>>> value_reported("Cc1cccc(C)c1OCC(C)N (centres undefined)")
1564.4
>>> value_reported("OCCN1CCN(CCCN2c3ccccc3Sc3ccc(C(F)(F)F)cc32)CC1")
734.4
>>> value_reported("CCOC(=O)C(C)(C)Oc1ccc(Cl)cc1 [CLOFIBRATE]")
852.2
>>> value_reported("O=C1CN(/N=C/c2ccc([N+](=O)[O-])o2)C(=O)N1")
818
>>> value_reported("C[C@H]1C(=O)O[C@@H]2CCN3CC=C(COC(=O)[C@](C)(O)[C@]1(C)O)[C@H]23")
1565.6
>>> value_reported("O=[N+]([O-])c1ccc(O)c([N+](=O)[O-])c1")
1126.4
>>> value_reported("C[C@H]1O[C@H](O[C@H]2[C@H](O)[C@@H](O)[C@@H](O[C@H]3[C@H](O)[C@@H](O)C(O)O[C@@H]3CO)O[C@@H]2CO)[C@H](O)[C@@H](O)[C@@H]1N[C@H]1C=C(CO)[C@@H](O)[C@H](O)[C@H]1O (some centres undefined)")
1741.6
>>> value_reported("C=C(C)[C@H]1Cc2c(ccc3c2O[C@@H]2COc4cc(OC)c(OC)cc4[C@@H]2C3=O)O1")
1512
>>> value_reported("Cn1cc[nH]c1=S")
1783.8

---

- Organism: Rattus norvegicus
- run description: Open TG-GATES - Regimen: Single
- Format: toxicity, organism-based, Sprague-Dawley
- Design: regimen Single, gender Male, age 6 weeks
- condition notes: in vivo, po, 0 mg/kg, 9 h, tissue Plasma, route gavage, dose level Control
Use criterion met when the recorded CRE is no lower than 0.2 mg/dL; use criterion not met when it is lower.

>>> label_class("Cn1cc[nH]c1=S")
"criterion not met"
>>> label_class("C=C(C)[C@H]1Cc2c(ccc3c2O[C@@H]2COc4cc(OC)c(OC)cc4[C@@H]2C3=O)O1")
"criterion met"
>>> label_class("OCCN1CCN(CCCN2c3ccccc3Sc3ccc(C(F)(F)F)cc32)CC1")
"criterion met"
>>> label_class("O=[N+]([O-])c1ccc(O)c([N+](=O)[O-])c1")
"criterion met"
>>> label_class("Cc1ccc2cc3c(ccc4ccccc43)c3c2c1CC3")
"criterion not met"
>>> label_class("CCOC(=O)C(C)(C)Oc1ccc(Cl)cc1 [CLOFIBRATE]")
"criterion met"

---

- Species on record: Rattus norvegicus
- run description: Open TG-GATES - Regimen: Daily Repeat
- Format: toxicity, organism-based, Sprague-Dawley
- Design: regimen Daily Repeat, gender Male, age 6 weeks
- condition notes: in vivo, po, 0 mg/kg, […], tissue Plasma, route gavage, dose level Control, time 14 day
result type: CRE (mg/dL)

>>> value_reported("C[C@H]1O[C@H](O[C@H]2[C@H](O)[C@@H](O)[C@@H](O[C@H]3[C@H](O)[C@@H](O)C(O)O[C@@H]3CO)O[C@@H]2CO)[C@H](O)[C@@H](O)[C@@H]1N[C@H]1C=C(CO)[C@@H](O)[C@H](O)[C@H]1O (some centres undefined)")
0.2
>>> value_reported("C[C@H]1C(=O)O[C@@H]2CCN3CC=C(COC(=O)[C@](C)(O)[C@]1(C)O)[C@H]23")
0.2
>>> value_reported("C=C(C)[C@H]1Cc2c(ccc3c2O[C@@H]2COc4cc(OC)c(OC)cc4[C@@H]2C3=O)O1")
0.4
>>> value_reported("O=C1CN(/N=C/c2ccc([N+](=O)[O-])o2)C(=O)N1")
0.4
>>> value_reported("Cn1cc[nH]c1=S")
0.2
>>> value_reported("O=[N+]([O-])c1ccc(O)c([N+](=O)[O-])c1")
0.3
>>> value_reported("CCOC(=O)C(C)(C)Oc1ccc(Cl)cc1 [CLOFIBRATE]")
0.4
>>> value_reported("Cc1cccc(C)c1OCC(C)N (centres undefined)")
0.2
>>> value_reported("OCCN1CCN(CCCN2c3ccccc3Sc3ccc(C(F)(F)F)cc32)CC1")
0.5

---

Na values for the molecules below.
- Species: Rattus norvegicus
- run description: Open TG-GATES - Regimen: Daily Repeat
- Format: toxicity, organism-based, Sprague-Dawley
- Design: regimen Daily Repeat, gender Male, age 6 weeks
- condition notes: in vivo, po, 0 mg/kg, […], tissue Plasma, route gavage, dose level Control, time 14 day
result type: Na (meq/L)

>>> value_reported("OCCN1CCN(CCCN2c3ccccc3Sc3ccc(C(F)(F)F)cc32)CC1 [FLUPHENAZINE]")
135.8
>>> value_reported("CCOC(=O)C(C)(C)Oc1ccc(Cl)cc1 [CLOFIBRATE]")
140.4
>>> value_reported("Cc1cccc(C)c1OCC(C)N (stereo not given) [MEXILETINE]")
140.6
>>> value_reported("C[C@H]1C(=O)O[C@@H]2CCN3CC=C(COC(=O)[C@](C)(O)[C@]1(C)O)[C@H]23 [MONOCROTALINE]")
142.4
>>> value_reported("O=C1CN(/N=C/c2ccc([N+](=O)[O-])o2)C(=O)N1 [NITROFURANTOIN]")
140

---

- Organism: Rattus norvegicus
- run description: Open TG-GATES - Regimen: Daily Repeat
- Format: toxicity, organism-based, Sprague-Dawley
- Parameters: regimen Daily Repeat, gender Male, age 6 weeks
- condition notes: in vivo, po, 0 mg/kg, […], tissue Plasma, route gavage, dose level Control, time 28 day
GLC values for the compounds below.
result type: GLC (mg/dL)

>>> value_reported("C=C(C)[C@H]1Cc2c(ccc3c2O[C@@H]2COc4cc(OC)c(OC)cc4[C@@H]2C3=O)O1")
182.2
>>> value_reported("O=C1CN(/N=C/c2ccc([N+](=O)[O-])o2)C(=O)N1")
218
>>> value_reported("OCCN1CCN(CCCN2c3ccccc3Sc3ccc(C(F)(F)F)cc32)CC1")
197.4
>>> value_reported("C[C@H]1O[C@H](O[C@H]2[C@H](O)[C@@H](O)[C@@H](O[C@H]3[C@H](O)[C@@H](O)C(O)O[C@@H]3CO)O[C@@H]2CO)[C@H](O)[C@@H](O)[C@@H]1N[C@H]1C=C(CO)[C@@H](O)[C@H](O)[C@H]1O (some centres undefined)")
184.8
>>> value_reported("Cn1cc[nH]c1=S")
198.8
>>> value_reported("O=[N+]([O-])c1ccc(O)c([N+](=O)[O-])c1")
195.4
>>> value_reported("C[C@H]1C(=O)O[C@@H]2CCN3CC=C(COC(=O)[C@](C)(O)[C@]1(C)O)[C@H]23")
190.2
>>> value_reported("CCOC(=O)C(C)(C)Oc1ccc(Cl)cc1 [CLOFIBRATE]")
207.2
>>> value_reported("Cc1cccc(C)c1OCC(C)N (centres undefined)")
194.8

---

- Organism: Rattus norvegicus
- run description: Open TG-GATES - Regimen: Daily Repeat
- Assay type: toxicity, organism-based, Sprague-Dawley
- Parameters: regimen Daily Repeat, gender Male, age 6 weeks
- condition notes: in vivo, po, 0 mg/kg, […], tissue Blood, route gavage, dose level Control, time 14 day
result type: Fbg (mg/dL)

>>> value_reported("O=[N+]([O-])c1ccc(O)c([N+](=O)[O-])c1 [2,4-DINITROPHENOL]")
243.2
>>> value_reported("O=C1CN(/N=C/c2ccc([N+](=O)[O-])o2)C(=O)N1 [NITROFURANTOIN]")
227.4
>>> value_reported("Cn1cc[nH]c1=S [METHIMAZOLE]")
331.8
>>> value_reported("Cc1cccc(C)c1OCC(C)N (stereo not given) [MEXILETINE]")
310.6
>>> value_reported("OCCN1CCN(CCCN2c3ccccc3Sc3ccc(C(F)(F)F)cc32)CC1 [FLUPHENAZINE]")
235.6
